experiment: Thermal rearrangement, pentane extracts from purified protein injected at different port temperatures; format: physicochemical; settings: injection port temperature 210 °C
Parameter Peak Area: see the listing below.

{"compound": "C=C1C=CC(C(C)C)CCC(C)=CCC1 (stereo not shown)", "Peak Area": "3.91 × 10^6"}
{"compound": "CC(C)=C1C/C=C(\\C)CC/C=C(\\C)CC1", "Peak Area": "5.87 × 10^5"}
{"compound": "C=C[C@]1(C)CC[C@@H](C(C)(C)O)C[C@H]1C(=C)C", "Peak Area": "5.75 × 10^6"}
{"compound": "C=C[C@@]1(C)CCC(C(C)C)=C[C@@H]1C(=C)C", "Peak Area": "9.05 × 10^5"}
